We begin with a simple list: items and their reported GI50.
tested on: A549; test: NCI tumour cell line growth inhibition, 48 h
Activity calls are given as the source filed them. No stated cut-off is given here; in the data, active = GI50 up to about 1.1 µM and inactive = higher.
value_kind: GI50

INSERT INTO assay_data (compound, value_kind, observed_measurement) VALUES
  ('CCCCCCCCCCCCCCCCNc1ccn(C2CC(O)C(COC(c3ccccc3)(c3ccccc3)c3ccc(OC)cc3)O2)c(=O)n1 (stereo not given)', 'GI50', '> 100 µM (inactive)'),
  ('C[C@@H]1CC[C@H]2[C@H](C)C(OC3O[C@@H]4O[C@@]5(C)CC[C@H]6[C@H](C)CC[C@@H]([C@@H]3C)[C@@]46O5)O[C@@H]3O[C@@]4(C)CC[C@@H]1[C@]32O4 (stereo not given in full)', 'GI50', '> 100 µM (inactive)'),
  ('CSC1=N/C(=C\c2ccc(Cl)cc2)C(=O)N1CN1CCCCC1', 'GI50', '42.4 µM (inactive)'),
  ('COc1cc(/C=C/C(=N\NC(=S)NN)c2sc(NNC(C)=O)nc2C)ccc1O', 'GI50', '> 100 µM (inactive)'),
  ('CC(C)C1=C(Cc2ccccc2)C(=O)O/C1=C\c1cc(Cl)c(O)c(Cl)c1', 'GI50', '21.6 µM (inactive)'),
  ('C=C(CO[Si](C)(C)C(C)(C)C)C(C)=O', 'GI50', '> 100 µM (inactive)'),
  ('NNC(=O)c1ccccc1NC(=O)/C(=C/c1ccccc1O)NC(=O)c1ccccc1', 'GI50', '> 100 µM (inactive)'),
  ('COc1cc2nc(-c3ccccc3F)nc(O)c2cc1OC', 'GI50', '> 100 µM (inactive)'),
  ('CC[C@@]1(CCC(=O)NCCc2c[nH]c3ccccc23)CCC(=O)N2CCc3c([nH]c4ccccc34)[C@H]21', 'GI50', '8.73 µM (inactive)'),
  ('O=c1onc2c3ccccc3ncn12', 'GI50', '> 100 µM (inactive)'),
  ('CCc1cccc(C)c1NC(=O)C1=C(C)NC(C)=C(C(=O)Nc2c(C)cccc2CC)C1c1ccc2c(c1)OCO2', 'GI50', '16.9 µM (inactive)'),
  ('CC(C)(C)OC(=O)N1CC(CCl)c2ccc(O)cc21 (stereo not given)', 'GI50', '3.12 µM (inactive)'),
  ('CCN(CC)c1ccc2c(c1)Nc1cc(=C(C#N)C#N)c3ccccc3c1=N2', 'GI50', '> 100 µM (inactive)'),
  ('COc1ccc(C2C(Cl)C(=O)N2NC(=O)c2ccc(NC(C)=O)cc2)cc1 (stereo not given)', 'GI50', '> 100 µM (inactive)'),
  ('CC1=C(/C=C/C(C)=C/C=C/C(C)=C/CO)C(C)(C)CCC1 [RETINOL]', 'GI50', '19.1 µM (inactive)'),
  ('COc1ccc(C2SCC(=O)N2NC(=O)C(C)Oc2ccc(Cl)cc2Cl)cc1 (stereo not given)', 'GI50', '31.6 µM (inactive)'),
  ('C[C@]12CC[C@H](O)CC1=CC[C@@H]1[C@@H]2CC[C@]2(C)c3nc(Cl)ccc3C[C@@H]12', 'GI50', '25 µM (inactive)'),
  ('CC(C)(C)NC1=NC(C(F)(F)F)(C(F)(F)F)NC(=O)N1', 'GI50', '35.1 µM (inactive)'),
  ('CC(=O)OC12c3ccccc3C(c3ccccc31)C1C(=O)N(Nc3ccccc3)C(=O)C12 (stereo not given)', 'GI50', '> 100 µM (inactive)'),
  ('NNC(=O)Cc1cccnc1', 'GI50', '> 100 µM (inactive)');

###

tested on: DU-145; assay: NCI tumour cell line growth inhibition, 48 h
Active and inactive are the calls of the source. Cut-off read from the data, not from the text of the source: active = GI50 up to about 1.1 µM and inactive = higher.
Labels: active, inactive

INSERT INTO assay_data (molecule, assigned_category) VALUES
  ('COC(=O)c1nc(-c2nc(CCNC(=O)OC(C)(C)C)sc2Cl)sc1Cl', 'inactive'),
  ('O=C(O)c1cc2ccccc2c2c1C(=O)c1ccccc1-2', 'inactive'),
  ('O=C(O)c1c(Cl)c(Cl)c(Cl)c(Cl)c1C(=O)Nc1ccc2cn[nH]c2c1', 'inactive'),
  ('CCCCCCc1cc2cc(C(=O)Nc3ccccc3F)c(=N)oc2cc1O', 'inactive'),
  ('COc1cc2c3c(c1OC)-c1cc4c(cc1CC3(C#N)N(C(=O)c1ccccc1)CC2)OCO4 (stereo not given)', 'inactive'),
  ('C[C@]12CC[C@H]3[C@@H](CCC4=CC(=O)CC[C@@H]43)[C@@H]1CC[C@@H]2OC1(O)C(=O)c2ccccc2C1=O', 'inactive'),
  ('CCCCC1Cc2cc(OC)ccc2-c2n1c1cc(OC)ccc1[n+]2C.CCCCC1Cc2cc(OC)ccc2-c2n1c1ccc(OC)cc1[n+]2C (stereo not given)', 'inactive'),
  ('C/C1=C/C2=CC(C)C[C@@H]2C(=O)[C@]2(C)C(=O)CC(C)(C)[C@H]2CC1=O (stereo not given in full)', 'inactive'),
  ('CC(C)OC(=S)Nc1ccc(Cl)c(/C=N/OC(C)(C)C)c1', 'inactive'),
  ('S=C(NCCc1ccccn1)N/N=C/c1ccccn1', 'inactive'),
  ('N#Cc1c(-c2ccc(Cl)cc2)cc(-c2ccc(Nc3ccnc4cc(C(F)(F)F)ccc34)cc2)nc1N', 'inactive'),
  ('CC1=C(O)C(=O)C=C2C1=CC=C1[C@@]2(C)CC[C@@]2(C)[C@@H]3C[C@](C)(C(=O)O)CC[C@]3(C)CC[C@]12C [CELASTROL]', 'active'),
  ('OCCSCc1ccccc1', 'inactive'),
  ('C=C(CN(CC)CC)C1(c2ccccc2)CC2(CCCC2)C(=O)O1 (stereo not given)', 'inactive'),
  ('Cn1c(-c2cccs2)cc(-c2cccs2)c1-c1cccs1', 'inactive'),
  ('CCc1c2c(nc3ccc(O)cc13)-c1cc3c(c(=O)n1C2)COC(=O)[C@]3(O)CC [7-ETHYL-10-HYDROXYCAMPTOTHECIN]', 'active'),
  ('C[C@@H]1CC[C@@H]2[C@@H](C1)O[C@@H]([C@@H](C)OCc1ccccc1)SC2(C)C', 'inactive'),
  ('Cc1nn(C(=O)c2ccc(Cl)cc2)c2c1C(c1ccc(O)cc1)SC(=N)N2 (stereo not given)', 'inactive'),
  ('COC(=O)/C=C/C1(O)C=CC(=O)C=C1', 'inactive'),
  ('COCOC1/C=C/CCCCC(=O)C(C)C#CC1 (stereo not given)', 'inactive');

###

tested on: UACC-62; assay: NCI tumour cell line growth inhibition, 48 h
Calls of active or inactive are those of the source. Rule as the data show it: active = GI50 up to about 1.1 µM and inactive = higher.
Labels: active, inactive

INSERT INTO results (compound, assigned_category) VALUES
  ('COC(=O)C(Cc1ccccc1)NC(=O)C(CCCNC(=N)N)NC(=O)OCc1ccccc1 (stereo unspecified)', 'inactive'),
  ('NC(=O)NNC(=O)CCn1[nH]c(=O)c(Cl)c(Cl)c1=O', 'inactive'),
  ('CN1C(=O)C2C(C1=O)C1(O)c3ccccc3C2(N)c2ccccc21 (stereo unspecified)', 'inactive'),
  ('Cc1c(C)c2c(c(N)c1C#N)C(=O)N(CCc1ccccc1)C2=O', 'inactive'),
  ('COc1ccc([C@H](NC(=O)c2ccccc2)[C@@H](O)C(=O)O[C@H]2C[C@@]3(O)C(OC(=O)c4ccccc4)C4[C@](C)(C(=O)[C@H](OC(C)=O)C(=C2C)C3(C)C)[C@@H](O)C[C@H]2OC[C@@]42OC(C)=O)cc1 (stereo partly specified)', 'active'),
  ('C=CCN1C(=O)/C(=C/c2ccc(OC)cc2)N=C1SC/C=C/C', 'inactive'),
  ('O=c1n(-c2ccccc2)c(=O)n2n1C1CCC2CC1', 'inactive'),
  ('CC(=O)OC12c3ccccc3C(c3ccccc31)C1C(=O)N(Nc3ccccc3)C(=O)C12 (stereo unspecified)', 'inactive'),
  ('Nc1nccc(NCC2(CO)CC(CCc3ccccc3)C2)n1 (stereo unspecified)', 'inactive'),
  ('O=C1C[C@@H](c2ccccc2)NCCCCN(O)CCCN1', 'inactive'),
  ('S=C1CSc2c(ccc3ccccc23)N1', 'inactive'),
  ('OC(c1cccs1)c1cc2ccccc2s1 (stereo unspecified)', 'inactive'),
  ('O=c1cc(CBr)c2ccc(O)cc2o1', 'inactive'),
  ('Cc1cccc(C(C)(C)C)c1NC(=O)CC1C(=O)Nc2ccccc2S1(=O)=O (stereo unspecified)', 'inactive'),
  ('COc1cc(-c2oc3ccccc3c(=O)c2O)cc(OC)c1OC', 'inactive'),
  ('COc1ccc(/C=N/NS(=O)(=O)c2ccccc2)cc1', 'inactive'),
  ('CN(C)CCNC(=O)c1ccc(NCCCN(C)CCCNc2ccc(C(=O)NCCN(C)C)c3nc4ccc([N+](=O)[O-])cc4c(O)c23)c2c(O)c3cc([N+](=O)[O-])ccc3nc12', 'active'),
  ('COc1ccc(C2SCC(=O)N2NC(=O)C(C)Oc2ccc(Cl)cc2Cl)cc1 (stereo unspecified)', 'inactive'),
  ('Cc1ccc(/N=N/C(=N/NC(=O)c2cc(Cl)ccc2C(=O)c2ccccc2)c2ccc(N(CCC#N)CCC#N)cc2C)cc1', 'inactive'),
  ('O=C1c2cc3c(cc2[C@@H]2NC4CCCC14O2)OCO3 (stereo partly specified)', 'inactive'),
  ('OCCCCCNc1cc(O)nc(O)n1', 'inactive');

The measurements presented in this section are drawn from ChEMBL document CHEMBL1201862.
